# tgt: BDCA-2 CRD (blood dendritic cell antigen 2) (Homo sapiens)
# Construct: gene CLEC4C; extracellular C-type carbohydrate recognition domain; expected mass of CRD 17,100; monomer
# Sequence (Q8WTT0 67-213): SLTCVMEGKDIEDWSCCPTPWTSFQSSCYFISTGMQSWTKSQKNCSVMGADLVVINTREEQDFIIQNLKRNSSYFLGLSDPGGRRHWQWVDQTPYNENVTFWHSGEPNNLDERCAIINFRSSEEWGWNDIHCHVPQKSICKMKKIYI
# assay-summary: solid-phase competition with […]-Man-BSA on immobilised CRD
# Format: binding
# condition-context: half-maximal inhibition; Ca2+-dependent; extended site, mannose at Ca2+
endpoint-name: Ki (µM)
Reply numerically in µM, unit not repeated.

Fill in: Ki of CC(=O)N[C@H]1[C@H](O[C@@H]2C(O)O[C@H](CO)[C@@H](O)[C@@H]2O)O[C@H](CO)[C@@H](O[C@@H]2O[C@H](CO)[C@H](O)[C@H](O)[C@H]2O)[C@@H]1O (stereo partly shown) is ___
9.2
